Biological target: T1, human ICOS-hFc (homodimeric, bivalent) (human, UniProt Q9Y6W8 21-141)
T1 construct: also called hICOS-Fc; hICOS-hFc; not shown: human IgG1 Fc (IgG1 backbone)
T1 sequence: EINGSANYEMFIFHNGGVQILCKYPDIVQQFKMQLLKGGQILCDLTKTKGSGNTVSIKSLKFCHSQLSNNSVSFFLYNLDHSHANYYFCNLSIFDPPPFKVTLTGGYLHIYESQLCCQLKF
Experiment: BLI (Octet RED96), full-length IgG vs homodimeric ICOS-Fc (avid)
// values below are reported koff
PARAMETER_MEASURED: koff (s⁻¹)

{"BINDER": "16G10 (antibody, V domains shown, Armenian hamster monoclonal tested as IgG; also called hamster anti-ICOS 16G10) VH: EVQLVESGGGLVKPGGSLKLSCAASGFTFSDYWMDWVRQAPGKGLEWVGNIDHDGNIINFAPSVKGRFTISRDNAKNTLYLQMNSVKSEDTATYYCARWGHYAFDSWGQGTLVTVSS VL: DIVMTQSPSSLAVSAGDKVTINCKSSQSLLSSGYNYLIWYQQKTGQAPKLLIFYASTRHTGVPDRFIGSGSGTDFTLTITSFQTEDLGDYYCQHHYSSPPTFGPGTKLEIK", "VALUE_QUALIFIER": "<", "MEASURED_NUMBER": "1e-07"}
{"BINDER": "37A10 (antibody, V domains shown, Armenian hamster monoclonal tested as IgG; also called hamster anti-ICOS 37A10) VH: EVQLVESGGGLVKPGGSLKLSCAASGFTFSDYWMDWVRQAPGKGLEWVGNIDEDGSITEYSPFVKGRFTISRDNVKNTLYLQMNSVKSEDTATYYCTRWGRFGFDSWGQGTLVTVSS VL: DIVMTQSPSSLAVSAGDRVTINCKSSQSLLSGSFNYLTWYQQKTGQAPKLLIFYASTRHTGVPDRFMGSGSGTDFTLTINSFQTEDLGDYYCHHHYNAPPTFGPGTKLELR", "VALUE_QUALIFIER": "=", "MEASURED_NUMBER": "2.3e-05"}
{"BINDER": "7F12 (antibody, V domains shown, Armenian hamster monoclonal tested as IgG; also called hamster anti-ICOS 7F12) VH: EVQLVESGGGLVKPGGSLTLSCAASGFTFSDYWMDWVRQGPGKGLEWVGNIDEDGSTTYYAPFVKGRFTISRDNAKKTLYLQMNSVKSEDTATYYCTRWGRYAFDSWGQGTLVTVSS VL: DIVMTQSPSSLAVSPGDKVTINCKSSQSLLSGNYNYLAWYQQKTGQAPKLLIFYASTRHTGVPDRFMGSGSGTDFSLTINSFQTEDLGDYYCQHHYSTPPTFGPGTKLEIK", "VALUE_QUALIFIER": "=", "MEASURED_NUMBER": "2.3e-05"}
{"BINDER": "36E10 (antibody, V domains shown, Armenian hamster monoclonal tested as IgG; also called hamster anti-ICOS 36E10) VH: EVQLVESGGGLVKPGGSLKLSCAASGFTFSDYWMDWVRQAPGKGLEWVGNIDEDGSITEYSPFVKGRFTISRDNVKNILYLQMNSVKSEDTATYYCTRWGRFAFDSWGQGTLVTVSS VL: DIVMTQSPSSLAVSPGDRVTINCKSSQSLLSGSFHYLTWYQQKTGQAPKLLIFYASTRHTGVPDRFMGSGSGTDFTLTINSFQTEDLGDYYCHHHYNAPPTFGPGTKLELR", "VALUE_QUALIFIER": "<", "MEASURED_NUMBER": "1e-07"}
